Taken from PubChem BioAssay (NCI).

Tested on: MOLT-4 leukemia
ASSAY_NAME: NCI-60 one-dose screen, 48 h
RUN_PARAMETERS: 10 µM unless noted
The panel holds about 83,000 compounds, 20% with a hit somewhere; the sample as a whole holds those more often. The source made the active and inactive calls. The calls were made as follows: active = growth percent below 10; inactive = the rest.
Field 'call' accepts active, inactive

Field: example entries. Status: answers known.
{"COMPOUND": "O=C(C(Br)Br)C(Br)C(Br)c1ccccc1 (stereo unspecified)", "CATEGORY_LABEL": "inactive"}
{"COMPOUND": "N#Cc1cnc2cc(OC[C@H](O)CO)c(NC(=O)CC3CSSC3)cc2c1Nc1ccc(OCc2cccc(F)c2)c(Cl)c1", "CATEGORY_LABEL": "active"}
{"COMPOUND": "Cn1cc(-c2csc(-c3c[nH]c4ncccc34)n2)c2cc(Br)cnc21", "CATEGORY_LABEL": "inactive"}
{"COMPOUND": "O=C(Oc1ccc[nH]c1=O)c1cccc(Cl)c1", "CATEGORY_LABEL": "inactive"}
{"COMPOUND": "C[n+]1c2ccccc2c(NC2CCNCC2)c2[nH]c3ccccc3c21", "CATEGORY_LABEL": "active"}
{"COMPOUND": "Cc1cc2c(C#N)n3c(c2cc1C)C(=O)C(c1ccccc1)Oc1ccccc1-3 (stereo unspecified)", "CATEGORY_LABEL": "inactive"}
{"COMPOUND": "O[C@@H]1Cc2ccc3ccccc3c2N[C@H](c2ccoc2)C1", "CATEGORY_LABEL": "inactive"}
{"COMPOUND": "Oc1ccccc1/C=N\\Nc1ccccc1", "CATEGORY_LABEL": "inactive"}
{"COMPOUND": "CCOc1nc(-c2ccccc2)cc2c(O)c(-c3nnco3)[nH]c(=O)c12", "CATEGORY_LABEL": "inactive"}
{"COMPOUND": "COc1ccc2c3c(c(OCCCN(C)C)nc2c1)-c1ccc(Cl)cc1C3=O", "CATEGORY_LABEL": "active"}

For the next question, use this compound.
Query: For `NNC(=O)NO` , what call appears in the results of this test?
Reply: inactive

---

Test system: NCI-H226 lung
ASSAY_NAME: NCI-60 one-dose screen, 48 h (100 = growth as untreated, 0 = no growth, -100 = all killed)
RUN_PARAMETERS: 10 µM unless noted
This is part of a sample that, as a whole, favours compounds with a hit. Of some 83,000 tested, about 20% had one in any assay. The source made the active and inactive calls. How the source made its calls: active means growth percent below 10; inactive means the rest.
PARAMETER_MEASURED: growth

Query: What value of measured growth is listed for NNC(=O)C1CC2c3ccccc3C1c1ccccc12 (stereo not drawn) ?
Reply: 101% (inactive)

Query: What value of measured growth is listed for CCOc1cccc(C2CC(=O)Nc3cc4c(cc32)OCO4)c1 (stereo not drawn) ?
Reply: 65% (inactive)

Query: What value of measured growth is listed for `CCC1=C(c2ccc(OC)cc2)C(C)(C)Oc2cc(O)c(CN3CCCC3)cc21` ?
Reply: 97.6% (inactive)

Query: What value of measured growth is listed for `COc1cc(OC)c2cc(C(=O)O)c(=O)oc2c1` ?
Reply: 96.8% (inactive)

Query: What value of measured growth is listed for `COc1ccc2nc3cc(Cl)ccc3c(N3CCN(c4ccnc(Nc5ccc(F)cc5)n4)CC3)c2c1` ?
Reply: 98.5% (inactive)

Query: What value of measured growth is listed for `Cc1cc(O)c2c(c1)C[C@H]1[C@@H]3CC[C@H]4CC(=O)CC[C@]4(C)[C@H]3CC(=O)[C@]21C` ?
Reply: 94.6% (inactive)

Query: What value of measured growth is listed for `S=C(c1ccccc1)N1CCN(c2cccc(Cl)c2)CC1` ?
Reply: 99.3% (inactive)

Query: What value of measured growth is listed for C[N+]1(CCc2ccccc2)CCC(CCC2CC[N+](C)(CCc3ccccc3)CC2)CC1 (stereo not drawn) ?
Reply: 92.1% (inactive)

Query: What value of measured growth is listed for `NC(N)=NC(N)=NCCCc1ccccc1` ?
Reply: 63.4% [100 µM] (inactive)

Query: What value of measured growth is listed for `S=C1SCN(Cc2ccccc2)CN1Cc1ccco1` ?
Reply: 111% (inactive)

Query: What value of measured growth is listed for CC(NC(=O)C(C)Oc1ccc(Cl)cc1Cl)C(=O)O (stereo not drawn) ?
Reply: 92.9% (inactive)

Query: What value of measured growth is listed for CCOC(=O)C1C(=O)OC2CCCCC21 (stereo not drawn) ?
Reply: 113% (inactive)

Query: What value of measured growth is listed for `CCCCc1nc(Cl)c(CO)n1Cc1ccc(-c2ccccc2-c2nn[nH]n2)cc1` ?
Reply: 99.3% (inactive)

Query: What value of measured growth is listed for O=C(NCCc1ccccc1)C1CCC(=O)N1Cc1ccc(Br)cc1 (stereo not drawn) ?
Reply: 95.1% (inactive)

Query: What value of measured growth is listed for `Cc1ccsc1/C=C/C1=NCCCN1C` ?
Reply: 100% (inactive)

Query: What value of measured growth is listed for `COc1ccc2c3c(c(OCCCN(C)C)nc2c1)-c1ccc(Cl)cc1C3=O` ?
Reply: 32.1% (inactive)

Query: What value of measured growth is listed for `O=C1c2ccccc2-c2c1nc1ccccc1[n+]2[O-]` ?
Reply: 106% (inactive)

Query: What value of measured growth is listed for `CCOc1ccccc1C(=O)OCC(=O)Nc1cccc(S(=O)(=O)N(C)C)c1` ?
Reply: 100% (inactive)

Query: What value of measured growth is listed for CCOC(=O)C(C(C)=O)c1nc2sc3cc(Cl)ccc3n2c(=N)c1C#N (stereo not drawn) ?
Reply: 43% (inactive)

Query: What value of measured growth is listed for `COc1ncc(-c2ccc3nccc(C#CCN4CCN(S(C)(=O)=O)CC4)c3c2)cc1NS(=O)(=O)c1ccc(F)cc1F` ?
Reply: 9.35% (active)

Query: What value of measured growth is listed for `CCC(=O)Nc1ccccc1C#C/C=C\C#Cc1ccccc1C(F)(F)F` ?
Reply: 52.5% (inactive)

Query: What value of measured growth is listed for `COC(=O)c1ccc2c(c1)nc(-c1ccc(O)c(OC)c1)n2-c1cc(C(C)(C)C)[nH]n1` ?
Reply: 106% (inactive)

Query: What value of measured growth is listed for CSc1nc2c(c(=O)[nH]1)C(c1ccc(Cl)cc1)C1=C(N2)/C(=C/c2ccc(Cl)cc2)CNC1 (stereo not drawn) ?
Reply: 78.9% (inactive)

Query: What value of measured growth is listed for `O=C1Cc2cc(CCN3CCN(CCOCCO)CC3)c(Cl)cc2N1Cc1ccc(-c2ccccc2-c2nn[nH]n2)cc1` ?
Reply: 81.8% (inactive)

Query: What value of measured growth is listed for `Cc1ccccc1-c1cc(Cc2ccccc2O)c(=O)[nH]n1` ?
Reply: 85.8% (inactive)

Query: What value of measured growth is listed for `Cc1cc(C)c(OC(=O)CSc2nc3ccccc3c(=O)n2CCc2ccccc2)cc1C` ?
Reply: 84.8% (inactive)

---

System: NCI-H322M lung
ASSAY_NAME: NCI-60 one-dose screen, 48 h (100 = growth as untreated, 0 = no growth, -100 = all killed)
RUN_PARAMETERS: 10 µM unless noted
Compounds without any hit were thinned out: in the full panel of roughly 83,000, 20% have a hit.
Listed molecules paired with reported growth
Lab book: enter the figure in %, no units written.

Solved cases below.
{"MOLECULE": "c1ccc(Nc2nnc(-c3cc(-c4cccnc4)n(-c4ccccc4)n3)s2)cc1", "SYSTEM_NAME": "NCI-H322M lung", "UOM": "%", "OBSERVED_VALUE": 109}
{"MOLECULE": "COc1cccc(C2C(C#N)=C(N)Oc3cc(OC)ccc32)c1 (stereo not drawn)", "SYSTEM_NAME": "NCI-H322M lung", "UOM": "%", "OBSERVED_VALUE": 32.6}
{"MOLECULE": "O=C(Nc1cccc([N+](=O)[O-])c1)c1cccc(C(=O)Nc2cccc([N+](=O)[O-])c2)c1", "SYSTEM_NAME": "NCI-H322M lung", "UOM": "%", "OBSERVED_VALUE": 77.1}

Query: What value of measured growth is listed for `NS(=O)(=O)c1ccc(NC2=C(Cl)C(=O)c3ccccc3C2=O)cc1` ?
Reply: 113

Query: What value of measured growth is listed for O=C1CCCN1C1CCN(Cc2cc3ccccc3[nH]c2=O)c2ccccc21 (stereo not drawn) ?
Reply: 83.2

Query: What value of measured growth is listed for `Cc1cc(O)c2c(c1)C[C@H]1[C@@H]3CC[C@H]4CC(=O)CC[C@]4(C)[C@H]3CC(=O)[C@]21C` ?
Reply: 104

Query: What value of measured growth is listed for `COc1cc(C(=O)/C=C/c2cccnc2Nc2ccccc2)cc(OC)c1OC` ?
Reply: 7.04

Query: What value of measured growth is listed for `Nc1cc(Cl)c(S(N)(=O)=O)cc1S(N)(=O)=O` ?
Reply: 87.9

Query: What value of measured growth is listed for CCOC(=O)C(Cc1ccccc1)(C(=O)OCC)C(Br)C(=O)c1ccccc1 (stereo not drawn) ?
Reply: 83.9

Query: What value of measured growth is listed for `C=C(C[C@@](O)(C(=O)Oc1ccccc1)C(=O)C1CCCCC1)c1ccccc1` ?
Reply: 112

Query: What value of measured growth is listed for `O=Cc1c[nH]c2ccc(NC(=O)OCc3ccccc3)cc12` ?
Reply: 88.6
